The reported measurements were obtained from PubChem BioAssay (NCI).

- Tested on: MDA-MB-231 breast
- experimentalProtocol: NCI tumour cell line growth inhibition, 48 h
measuredAttribute: TGI (µM)
Give the value in µM but do not write µM after it.

CCN(CC)CCOc1ccc(/C(=C(\C)c2ccc(F)c(OC)c2)c2ccc(Cl)cc2)cc1 :: 4.8

Query: // lookup TGI for O=C(O)c1ccccc1-c1ccccc1C(=O)Nc1ccc2c(c1)Cc1cc(F)ccc1-2
Result: 83.2

###

- System: KM12 colon
- experimentalProtocol: NCI tumour cell line growth inhibition, 48 h
Entries and their GI50 values follow.

Before answering, review these 3 worked examples.
COc1ccc(-c2cc(-c3cccn3C)c(C#N)c(N)n2)cc1OC :: > 100 µM
O=C(Nc1cccc(Cl)c1Cl)c1cccc(NC2=C(Cl)C(=O)N(Cc3ccccc3)C2=O)c1 :: 82.8 µM
Nc1ccncc1/C=C1/C(=O)Nc2ccccc21 :: 25 µM

Query: What is its GI50 for KM12 colon? Entry: C=C1C(=O)O[C@H]2[C@H]1[C@@H](OC(=O)C=C(C)C)CC1=C[C@@H](C[C@@]3(C)O[C@@H]23)OC1=O
Result: 10.4 µM

Query: Please state recorded GI50 (tested on KM12 colon) of CC(=O)Oc1ccccc1C(=O)N=C1[Se]CCN1C(=O)c1ccccc1OC(C)=O
Result: 1.1 µM

Query: Entry CC(=O)c1c(CBr)n([O-])c2ccccc2[n+]1=O , system KM12 colon: what GI50 was measured?
Result: 15 µM

Query: Given the entry O=C1c2ccn(CCCCNC(CO)(CO)CO)c2C(=O)c2c1c(O)c1ccccc1c2O , what GI50 was observed with KM12 colon?
Result: 0.592 µM

Query: Quick check: GI50 on KM12 colon, item CN(C)Cc1c[nH]c2c1C(=O)c1c(c(O)c3ccccc3c1O)C2=O ?
Result: 4.66 µM

Query: Request body: readout GI50, system KM12 colon, query Cc1c[n+](Cc2ccc3ccccc3c2)cn1Cc1ccc2ccccc2c1 . Return the value.
Result: 1.65 µM

Query: Observed GI50 on KM12 colon for C#CC(=O)Nc1cccc(Nc2nc3c(c(NCc4ccccc4)n2)CCCC3)c1 , please.
Result: 0.0225 µM

###

- Test system: T-47D breast
- experimentalProtocol: NCI tumour cell line growth inhibition, 48 h; in the data active means GI50 below about 0.43 µM; inactive means the rest
Reply using exactly one outcome from class 1 for active, class 0 for inactive

Previously resolved entries follow.
NC(=O)C(=CNc1nc(-c2ccc(Cl)c(Cl)c2)cs1)C(N)=O :: class 0
O=C(Nc1ccc(Cl)cc1F)c1cc(Br)ccc1O :: class 0
Cc1c[n+](Cc2ccc3ccccc3c2)cn1Cc1ccc2ccccc2c1 :: class 1

For the next question, use this compound.
Query: Please indicate how the test categorized O=C(O)c1cc(O)c2c(c1)C(C1c3cc(C(=O)O)cc(O)c3C(=O)c3c(OC4OC(CO)C(O)C(O)C4O)cccc31)c1cccc(OC3OC(CO)C(O)C(O)C3O)c1C2=O (centres undefined) .
Result: class 0

###

- Tested on: NCI-H522 lung
- experimentalProtocol: NCI tumour cell line growth inhibition, 48 h
measuredAttribute: GI50

Would you please look over these solved cases?
CCOC(=O)N1CCN(C(=O)c2ccc(C(F)(F)F)nc2Nc2cc(Cl)ccc2C)CC1 :: 4.43 µM
O=C(O)c1cc(O)c2c(c1)C(C1c3cc(C(=O)O)cc(O)c3C(=O)c3c(OC4OC(CO)C(O)C(O)C4O)cccc31)c1cccc(OC3OC(CO)C(O)C(O)C3O)c1C2=O (centres undefined) :: > 100 µM
COc1ccc(-c2cc(-c3cccn3C)c(C#N)c(N)n2)cc1OC :: 40.4 µM

// below: GI50 requested for another compound
Query: Can you look up GI50 on NCI-H522 lung for O=c1[nH]c2cc(Cl)ccc2n1C1CCN(CCCC(c2ccc(F)cc2)c2ccc(F)cc2)CC1 ?
Result: 1.82 µM

###

- Test system: OVCAR-5 ovarian
- experimentalProtocol: NCI tumour cell line growth inhibition, 48 h
measuredAttribute: TGI

Worked examples follow.
CCCCCc1c(C)[nH]c(/C=C2\N=C(c3ccc[nH]3)C=C2CC)c1C :: 0.785 µM
O=C(O)c1ccc(NNc2cc(=O)[nH]c(=O)[nH]2)cc1 :: > 100 µM
O=C1NC(=O)C(c2c[nH]c3cc(Br)ccc23)=C1c1cn(C(c2ccccc2)(c2ccccc2)c2ccccc2)cn1 :: 39 µM
CCOC(=O)C1N(S(=O)(=O)c2ccc(C)cc2)CCC12C(c1ccc(OC)cc1)NC1CCCCC12 (stereo not given) :: > 100 µM

Now consider a different molecule.
Query: Give the measured TGI of CCN(CC)CCNCC(=O)Oc1ccc(/C=C/C(=O)CC(=O)/C=C/c2ccc(OC(=O)CNCCN(CC)CC)c(OC)c2)cc1OC .
Result: 15.1 µM

###

- Test system: SK-MEL-2 melanoma
- experimentalProtocol: NCI tumour cell line growth inhibition, 48 h
// values below are reported TGI
Enter your answer as a number in µM; do not include the unit.

CCC1OC2C(CC=C(C)C)=C3OC(C)(O)C(C)(CC)C(OC(=O)c4ccccc4)C3=C3OC(=O)C=C1C32 (centres undefined) :: 55.2

Query: State the recorded TGI for this entry: C=CCNC1=C2C[C@@H](C)C[C@@H](OC)[C@@H](OC(=O)CCCN)[C@H](C)/C=C(\C)[C@@H](OC(N)=O)[C@H](OC)/C=C\C=C(/C)C(=O)NC(=CC1=O)C2=O
Result: 31

###

- System: SF-268 CNS
- experimentalProtocol: NCI tumour cell line growth inhibition, 48 h; in the data active means GI50 below about 0.43 µM; inactive means the rest
Your response should consist of one outcome taken from active, inactive

Consider the following illustrative entries.
C#CC(=O)Nc1cccc(Nc2nc3c(c(NCc4ccccc4)n2)CCCC3)c1 :: active
CCN(CC)CCNCC(=O)Oc1ccc(/C=C/C(=O)CC(=O)/C=C/c2ccc(OC(=O)CNCCN(CC)CC)c(OC)c2)cc1OC :: inactive
COc1ccc(-c2cc(-c3cccn3C)c(C#N)c(N)n2)cc1OC :: inactive
Cc1ccc(Nc2nc(N)c(C(=O)c3ccc(C#N)cc3)s2)cc1 :: inactive
COc1ccc(CNc2c3ccccc3nc3ccccc23)cc1OC :: inactive
CC(=O)O[C@@H]1C[C@]2(C(C)C)O[C@@]1(C)[C@@H]1CCC(C)=C1[C@@H]2OC(=O)/C=C/c1ccccc1 :: inactive
O=C(Nc1cccc(Cl)c1Cl)c1cccc(NC2=C(Cl)C(=O)N(Cc3ccccc3)C2=O)c1 :: inactive
NC1CCCC[C@H]1N.N[C@@H]1CCCC[C@@H]1N.O=C(P(=O)([O-])[O-])P(=O)([O-])[O-].[Pt+4].[Pt+4] :: inactive

Query: Kindly provide the recorded test outcome for the following compound: COc1ccc(C2C(C#N)=C(N)OC3=C2COc2ccc(F)cc23)cc1OC (centres undefined)
Result: inactive

###

TGI reference
- Test system: OVCAR-4 ovarian
- experimentalProtocol: NCI tumour cell line growth inhibition, 48 h

OCC1OC(n2cnc3c2NC=NC[C@H]3O)C(O)C1O (some centres undefined) :: > 450 µM

Query: I'd like to know its TGI. The compound in question is O=C1CSC(Cc2nc3ccccc3[nH]2)=N1
Result: 41.6 µM

Query: Reported TGI, compound C[C@]12CCC(=O)C=C1CC[C@@H]1C2CC[C@]2(C)c3nn(-c4ccc(F)cc4)nc3CC12 (some centres undefined) : ____
Result: > 100 µM

Query: Consider the compound shown here: Cc1cn(C2CC(ON3C(=O)c4ccccc4C3=O)C(CO)O2)c(=O)[nH]c1=O (centres undefined) What is its recorded TGI?
Result: > 10 µM

###

- Tested on: HL-60(TB) leukemia
- experimentalProtocol: NCI tumour cell line growth inhibition, 48 h; in the data active = GI50 below about 0.43 µM; inactive = the rest
Hi! Could you answer with just one of these? True = active, False = inactive

Below are worked cases with known answers.
CC(=O)Oc1ccccc1C(=O)N=C1[Se]CCCN1C(=O)c1ccccc1OC(C)=O :: False
CCOC(=O)N1CCN(C(=O)c2ccc(C(F)(F)F)nc2Nc2cc(Cl)ccc2C)CC1 :: False
CN1CCc2c(Sc3ccc(C(=O)NO)cc3)c3ccccc3n2C1 :: False

Query: Give the logged outcome of this assay for the following compound: CN(C)Cc1c[nH]c2c1C(=O)c1c(c(O)c3ccccc3c1O)C2=O
Result: False

Query: Which outcome was entered for the compound CCCCCc1c(C)[nH]c(/C=C2\N=C(c3ccc[nH]3)C=C2CC)c1C in this test?
Result: True

###

- System: SK-MEL-2 melanoma
- experimentalProtocol: NCI tumour cell line growth inhibition, 48 h
measuredAttribute: TGI

CCOC(=O)C(N=Nc1ccc(S(N)(=O)=O)cc1)C(C)=O (stereo unspecified) :: > 100 µM

Query: TGI; subject: COc1cccc(OC)c1/C=C1\OC(=O)c2cccc(OC)c21
Result: > 30.1 µM

Query: Report TGI for CN(Nc1cc(=O)[nH]c(=O)[nH]1)c1ccccc1 please.
Result: > 100 µM

Query: Fill in: TGI of CC1=C(Br)C(Br)=C(C)S1=O is ___
Result: 32.9 µM

Query: Need TGI of Cc1[nH][nH]c(=O)c1C=Nc1ccc(-c2nc3ccccc3[nH]2)cc1 , thanks.
Result: 48 µM

Query: Returns the measured TGI for the input compound. Input: CCOC(=O)CC1CCN(C(=O)c2ccccc2)C2Cc3c([nH]c4ccccc34)C12C[N+](=O)[O-] (stereo unspecified)
Result: > 100 µM
